# Target Entity: NLK (human)
# Assay Name: radiometric filter-binding kinase assay, Kinase HotSpot
# Test Parameters: compound 0.5 µM; ATP 10 µM
Measured residual activity of individual entries
Dear colleague, please return just the value in %, with no unit written.

Structure Notation	Target Entity	Property Measured	Meas Value
O=c1[nH]c2ccccc2n1C1CCN(Cc2ccc(-c3nc4cc5[nH]cnc5cc4nc3-c3ccccc3)cc2)CC1	NLK (human)	residual activity	104
N#CCCc1ccc2c(c1)-c1[nH]c3ccc([N+](=O)[O-])cc3c1CC(=O)N2	NLK (human)	residual activity	89.7

Please find the next molecule below.
molecule N#C/C(=C1/Nc2ccccc2S1)c1ccnc(NCCc2cccnc2)n1 , residual activity observed: 94.9
